# System: DIPGX9 (diffuse intrinsic pontine glioma line)
# ASSAY METHOD TEXT: growth inhibition (% activity, log2 RLU normalised to DMSO / staurosporine); higher = more growth inhibition
# CONDITION NOTES: 33 µM
RECORDED METRIC: growth inhibition
Phrase the answer as number then unit, nothing more needed.

{"columns": ["COMPOUND", "VALUE"],
 "data": [
  ["Cc1c(N)nc(C(CC(N)=O)NCC(N)C(N)=O)nc1C(=O)NC(C(=O)NC(C)C(O)C(C)C(=O)NC(C(=O)NCCc1nc(-c2nc(C(=O)NCCC[S+](C)C)cs2)cs1)C(C)O)C(O[C@@H]1O[C@@H](CO)[C@@H](O)[C@H](O)[C@@H]1O[C@H]1O[C@H](CO)[C@@H](O)[C@H](OC(N)=O)[C@@H]1O)c1cnc[nH]1 (some centres undefined)", "17.8%"],
  ["c1ccc2c(c1)sc1ccccc12", "-1.01%"],
  ["CN1c2ccccc2C(NCCCCCCC(=O)O)c2ccc(Cl)cc2S1(=O)=O (centres undefined)", "0.503%"],
  ["NCC(O)c1ccc(O)cc1 (centres undefined)", "-0.182%"],
  ["CN1C(=O)CCS(=O)(=O)C1c1ccc(Cl)cc1 (centres undefined)", "1.13%"],
  ["CNC(=O)Oc1ccc2c(c1)[C@]1(C)CCN(C)[C@@H]1N2C", "-0.267%"],
  ["Cc1cccc(C)c1NC(=O)CN1CCCC1=O", "-1.24%"],
  ["COc1ccc(C(CN(C)C)C2(O)CCCCC2)cc1 (centres undefined)", "0.288%"]
]}

Below: the item to evaluate.
Per the records, this compound ( CCC(COC(=O)c1cc(OC)c(OC)c(OC)c1)(c1ccccc1)N(C)C (centres undefined) ) has growth inhibition equal to 2.8%
